FYI, the data here is from ChEMBL document CHEMBL1136334.

Measured on: Geranylgeranyl transferase type I (Homo sapiens, UniProt P49354+P53609)
Method: In vitro inhibition of the human Geranylgeranyl transferase-catalyzed incorporation of [3H]GGPP into biotinylated peptide corresponding to the C-terminal of human K-Ras.
Catalogue of log10 IC50 readings, one per entry.
Values are log10 of IC50 in nM.

Ask: # return recorded log10 IC50 for input Cn1cncc1C(OCc1ccc(C#N)cc1-c1ccc(-c2ccccc2)cc1)c1ccc(C#N)cc1 (stereo not drawn)
Result: 2.18

----------
Measured on: Protein farnesyltransferase (Homo sapiens, UniProt P49354+P49356)
Method: In vitro inhibition of the human FTase-catalyzed incorporation of [3H]FPP into recombinant Ras CVIM.
Strictly below 1 nM in IC50: T. Otherwise: F.

The examples below pair each entry with its known result.
{"Compound": "Cn1cncc1C(OCc1ccc(C#N)cc1CCC(C)(C)C)c1ccc(C#N)cc1 (configuration not stated)", "Label": "T"}
{"Compound": "Cn1cncc1C(OCc1ccc(C#N)cc1C#CC(C)(C)C)c1ccc(C#N)cc1 (configuration not stated)", "Label": "T"}
{"Compound": "Cn1cncc1C(OCc1ccc(C#N)cc1-c1ccc(-c2ccccc2)cc1)c1ccc(C#N)cc1 (configuration not stated)", "Label": "F"}
{"Compound": "Cn1cncc1C(OCc1ccc(C#N)cc1/C=C/c1ccc([N+](=O)[O-])cc1)c1ccc(C#N)cc1 (configuration not stated)", "Label": "T"}
{"Compound": "Cn1cncc1C(OCc1ccc(C#N)cc1C#Cc1ccc(C#N)cc1)c1ccc(C#N)cc1 (configuration not stated)", "Label": "T"}

Ask: Is IC50 of Cn1cncc1C(OCc1ccc(C#N)cc1C#CC1(O)CCCCC1)c1ccc(C#N)cc1 (configuration not stated) strictly below 1 nM?
Result: T

Ask: Is IC50 of Cn1cncc1C(OCc1ccc(C#N)cc1C#Cc1ccc(-c2ccccc2)cc1)c1ccc(C#N)cc1 (configuration not stated) strictly below 1 nM?
Result: F

Ask: Is IC50 of Cn1cncc1C(OCc1ccc(C#N)cc1/C=C/c1ccccn1)c1ccc(C#N)cc1 (configuration not stated) strictly below 1 nM?
Result: F

Ask: Is IC50 of Cn1cncc1C(OCc1ccc(C#N)cc1C#CCCCCO)c1ccc(C#N)cc1 (configuration not stated) strictly below 1 nM?
Result: F

Ask: Is IC50 of Cn1cncc1C(OCc1ccc(C#N)cc1C#Cc1ccccc1)c1ccc(C#N)cc1 (configuration not stated) strictly below 1 nM?
Result: T

Ask: Is IC50 of Cn1cncc1C(OCc1ccc(C#N)cc1C#CCCc1ccccc1)c1ccc(C#N)cc1 (configuration not stated) strictly below 1 nM?
Result: F

Ask: Is IC50 of CCC/C=C/C=C/c1cc(C#N)ccc1COC(c1ccc(C#N)cc1)c1cncn1C (configuration not stated) strictly below 1 nM?
Result: F

----------
Measured on: Geranylgeranyl transferase type I (Homo sapiens, UniProt P49354+P53609)
Method: In vitro inhibition of the human Geranylgeranyl transferase-catalyzed incorporation of [3H]GGPP into biotinylated peptide corresponding to the C-terminal of human K-Ras.
Endpoint label: IC50 (nM)
Just the number in nM, nothing appended.

{"Molecule": "Cn1cncc1C(OCc1ccc(C#N)cc1C#CCCCCO)c1ccc(C#N)cc1 (centres undefined)", "Measured on": "Geranylgeranyl transferase type I (Homo sapiens, UniProt P49354+P53609)", "Reported measurement": 1600}
{"Molecule": "Cn1cncc1C(OCc1ccc(C#N)cc1-c1ccc(C#N)cc1)c1ccc(C#N)cc1 (centres undefined)", "Measured on": "Geranylgeranyl transferase type I (Homo sapiens, UniProt P49354+P53609)", "Reported measurement": 9000}
{"Molecule": "Cn1cncc1C(OCc1ccc(C#N)cc1CCC(C)(C)C)c1ccc(C#N)cc1 (centres undefined)", "Measured on": "Geranylgeranyl transferase type I (Homo sapiens, UniProt P49354+P53609)", "Reported measurement": 310}

Note: attention shifts to another entry.
Ask: # return recorded IC50 for input Cn1cncc1C(OCc1ccc(C#N)cc1/C=C/c1ccccn1)c1ccc(C#N)cc1 (centres undefined)
Result: 1800

----------
Measured on: Protein farnesyl/geranylgeranyl transferase (Homo sapiens) (UniProt P49354+P49356+P53609)
Method: Selectivity ratio of IC50 Geranylgeranyl transferase to that of IC50 Farnesyltransferase
Type: protein-complex assay
Endpoint label: Selectivity

{"Compound": "Cn1cncc1C(OCc1ccc(C#N)cc1C#Cc1cccc(O)c1)c1ccc(C#N)cc1 (configuration not stated)", "Selectivity": 1300}
{"Compound": "CCC/C=C/C=C/c1cc(C#N)ccc1COC(c1ccc(C#N)cc1)c1cncn1C (configuration not stated)", "Selectivity": 169}
{"Compound": "Cn1cncc1C(OCc1ccc(C#N)cc1C#CC(C)(C)C)c1ccc(C#N)cc1 (configuration not stated)", "Selectivity": 790}
{"Compound": "Cn1cncc1C(OCc1ccc(C#N)cc1/C=C/c1ccccn1)c1ccc(C#N)cc1 (configuration not stated)", "Selectivity": 1120}
{"Compound": "Cn1cncc1C(OCc1ccc(C#N)cc1C#Cc1ccc(-c2ccccc2)cc1)c1ccc(C#N)cc1 (configuration not stated)", "Selectivity": "> 1000"}

Ask: # return recorded Selectivity for input Cn1cncc1C(OCc1ccc(C#N)cc1C#Cc1ccc(C#N)cc1)c1ccc(C#N)cc1 (configuration not stated)
Result: 196

Ask: # return recorded Selectivity for input Cn1cncc1C(OCc1ccc(C#N)cc1C#Cc1ccc([N+](=O)[O-])cc1)c1ccc(C#N)cc1 (configuration not stated)
Result: 273

Ask: # return recorded Selectivity for input Cn1cncc1C(OCc1ccc(C#N)cc1C#CCCc1ccccc1)c1ccc(C#N)cc1 (configuration not stated)
Result: 386

Ask: # return recorded Selectivity for input Cn1cncc1C(OCc1ccc(C#N)cc1C#CC1(O)CCCCC1)c1ccc(C#N)cc1 (configuration not stated)
Result: 971

Ask: # return recorded Selectivity for input CCCCCCC#Cc1cc(C#N)ccc1COC(c1ccc(C#N)cc1)c1cncn1C (configuration not stated)
Result: 178

Ask: # return recorded Selectivity for input Cn1cncc1C(OCc1ccc(C#N)cc1/C=C/c1ccc([N+](=O)[O-])cc1)c1ccc(C#N)cc1 (configuration not stated)
Result: 180

Ask: # return recorded Selectivity for input Cn1cncc1C(OCc1ccc(C#N)cc1C#CCCCCO)c1ccc(C#N)cc1 (configuration not stated)
Result: 941

Ask: # return recorded Selectivity for input Cn1cncc1C(OCc1ccc(C#N)cc1-c1ccc(-c2ccccc2)cc1)c1ccc(C#N)cc1 (configuration not stated)
Result: 136

----------
Measured on: Protein farnesyltransferase (Homo sapiens, UniProt P49354+P49356)
Method: In vitro inhibition of the human FTase-catalyzed incorporation of [3H]FPP into recombinant Ras CVIM.
Catalogue of IC50 readings, one per entry.
Express the reported value numerically, then name its unit.

Ask: # return recorded IC50 for input Cn1cncc1C(OCc1ccc(C#N)cc1-c1ccc(C#N)cc1)c1ccc(C#N)cc1 (stereo not given)
Result: 1.3 nM

Ask: # return recorded IC50 for input Cn1cncc1C(OCc1ccc(C#N)cc1C#Cc1ccccn1)c1ccc(C#N)cc1 (stereo not given)
Result: 2.9 nM

Ask: # return recorded IC50 for input Cn1cncc1C(OCc1ccc(C#N)cc1C#Cc1ccc([N+](=O)[O-])cc1)c1ccc(C#N)cc1 (stereo not given)
Result: 0.55 nM

Ask: # return recorded IC50 for input Cn1cncc1C(OCc1ccc(C#N)cc1C#Cc1cccc(O)c1)c1ccc(C#N)cc1 (stereo not given)
Result: 1 nM

Ask: # return recorded IC50 for input CCCCCCC#Cc1cc(C#N)ccc1COC(c1ccc(C#N)cc1)c1cncn1C (stereo not given)
Result: 0.9 nM

----------
Measured on: Geranylgeranyl transferase type I (Homo sapiens, UniProt P49354+P53609)
Method: In vitro inhibition of the human Geranylgeranyl transferase-catalyzed incorporation of [3H]GGPP into biotinylated peptide corresponding to the C-terminal of human K-Ras.
Type: protein-complex assay
pIC50: −log10 of the molar value.
Cut-off 6 on pIC50, inclusive. At or above means TRUE; below means FALSE.

{"Compound": "Cn1cncc1C(OCc1ccc(C#N)cc1C#Cc1ccccc1)c1ccc(C#N)cc1 (configuration not stated)", "Measured on": "Geranylgeranyl transferase type I (Homo sapiens, UniProt P49354+P53609)", "Label": "FALSE"}
{"Compound": "Cn1cncc1C(OCc1ccc(C#N)cc1C#Cc1ccccn1)c1ccc(C#N)cc1 (configuration not stated)", "Measured on": "Geranylgeranyl transferase type I (Homo sapiens, UniProt P49354+P53609)", "Label": "FALSE"}
{"Compound": "CCCCCCC#Cc1cc(C#N)ccc1COC(c1ccc(C#N)cc1)c1cncn1C (configuration not stated)", "Measured on": "Geranylgeranyl transferase type I (Homo sapiens, UniProt P49354+P53609)", "Label": "TRUE"}
{"Compound": "Cn1cncc1C(OCc1ccc(C#N)cc1/C=C/c1ccc([N+](=O)[O-])cc1)c1ccc(C#N)cc1 (configuration not stated)", "Measured on": "Geranylgeranyl transferase type I (Homo sapiens, UniProt P49354+P53609)", "Label": "TRUE"}
{"Compound": "Cn1cncc1C(OCc1ccc(C#N)cc1C#CCCc1ccccc1)c1ccc(C#N)cc1 (configuration not stated)", "Measured on": "Geranylgeranyl transferase type I (Homo sapiens, UniProt P49354+P53609)", "Label": "TRUE"}

Turning now to a further record.
Ask: Evaluate CCC/C=C/C=C/c1cc(C#N)ccc1COC(c1ccc(C#N)cc1)c1cncn1C (configuration not stated) : pIC50 at minimum 6?
Result: TRUE
